Tested on: HTT mRNA
Experiment: RT-qPCR splicing assay, HTT canonical (CJ) and alternative (AJ) junction mRNA
Assay type: cell-based, human
Settings: Homo sapiens, 24 h, Table 3A; A673 or K562 cells, 24 h treatment; read-out: HTT CJ (IC50, decrease in CJ mRNA)
pIC50: −log10 of the molar value.
readout kind: pIC50

Data request: Report pIC50 for Cc1cc(-c2ccc(-c3ccc(N4CCC(NCC5CC5)C4)nn3)c(O)c2)ncn1 (stereo not shown)
Data returned: 5.00 to 6.00

Data request: # return recorded pIC50 for input COc1cc(-c2ccc(-c3ccc(N4CCC(NC56CC(C5)C6)C4)nn3)c(O)c2)cnn1 (stereo not shown)
Data returned: > 7.00

Data request: Check the records and state pIC50 for Cc1cc(-c2ccc(-c3ccc(N4CC[C@@H](NC5CCC5)C4)nn3)c(O)c2)cnn1
Data returned: < 5.00

Data request: State its pIC50: COc1cc(-c2ccc(-c3ccc(N4CC[C@@H](NC5CC5)C4)nn3)c(O)c2)cnn1
Data returned: > 7.00

Data request: Look up and state reported pIC50 for CN(C1CCC1)[C@@H]1CCN(c2ccc(-c3cc(F)c(-c4cn[nH]c4)cc3O)nn2)C1
Data returned: > 7.00

###

Consider the following compounds and their measured IC50 readings.
Tested on: Target C mRNA
Test: RT-qPCR splicing assay panel, Target C canonical junction (CJ) mRNA
Type: cell-based, human
Conditions: Homo sapiens, canonical junction (CJ) mRNA, RT-qPCR panel, Table 4A; read-out: Target C, decrease in CJ mRNA levels, IC50

# annotated cases, reported IC50 shown
Cc1ncc(-c2ccc(-c3ccc(N4CC[C@H](NCC5CC5)C4)nn3)c(O)c2)s1; < 0.1 µM
CC1(C)CC(Oc2ccc(-c3cc(F)c(-c4cn[nH]c4)cc3O)nn2)CC(C)(C)N1; < 0.1 µM
Cc1nnc(-c2cc(O)c(-c3ccc(N4CC[C@H](NCC5CC5)C4)nn3)cc2F)s1; 0.1 to 1 µM

Now for the compound whose IC50 we want.
Data request: Find the measured IC50 of Oc1cc(-c2cnc(C3CC3)s2)c(F)cc1-c1ccc(N2CCC(NC3CCC3)C2)nn1 (centres unmarked) with Target C mRNA as test system.
Data returned: > 10 µM

###

Test system: Target C mRNA
Experiment: RT-qPCR splicing assay panel, Target C canonical junction (CJ) mRNA
Assay type: cell-based, human
Settings: Homo sapiens, canonical junction (CJ) mRNA, RT-qPCR panel, Table 4A; read-out: Target C, decrease in CJ mRNA levels, IC50
Structures can show the parent of a compound that is named as a salt.
Quick reference for IC50 among some molecules

As a guide, the following entries are already answered.
CCN(C1CCC1)[C@@H]1CCN(c2ccc(-c3ccc(-c4cnnc(OC)c4)cc3O)nn2)C1; 0.1 to 1 µM
CN(C1CCN(c2ccc(-c3cc(F)c(-c4cn[nH]c4)cc3O)nn2)C1)C(C)(C)C (stereo in doubt) [Compound 119]; < 0.1 µM
Oc1cc(-c2cn[nH]c2)c(F)cc1-c1ccc(N2CC[C@@H](NC3CC3)C2)nn1; 0.1 to 1 µM
COc1cc(-c2ccc(-c3ccc(N4CCC(CNC(C)(C)C)C4)nn3)c(O)c2)cnn1 (stereo not shown); 0.1 to 1 µM
COc1cc(-c2ccc(-c3ccc(N4C[C@@H](F)[C@@H](NC(C)(C)C)C4)nn3)c(O)c2)cnn1; < 0.1 µM

Data request: Under Target C mRNA: report IC50 of CN([C@@H]1CCN(c2ccc(-c3ccc(-c4cn[nH]c4)cc3O)nn2)C1)C(C)(C)C .
Data returned: 0.1 to 1 µM

Data request: Write IC50 of CC(C)(C)NC1CCN(c2ccc(-c3ccc(-n4cccn4)c(O)c3)nn2)C1 (stereo not shown) [Compound 109, trifluoroacetate] ; system used: Target C mRNA
Data returned: > 10 µM

###

System: MYB mRNA
Assay: RT-qPCR splicing assay, MYB canonical (CJ) and alternative (AJ) junction mRNA
Type: cell-based, human
Details: Homo sapiens, 24 h, Table 3B; A673 or K562 cells, 24 h treatment; read-out: MYB AJ (AC50, increase in AJ mRNA)
Below is a list of entries, each paired with its recorded AC50 value.

Reference set, count: 2
Cc1nc2cc(O)c(-c3ccc(N4CCC(NC5CCC5)C4)nn3)cc2o1 (stereo not shown); > 10 µM
Cc1nc2cc(O)c(-c3ccc(N4CC[C@H](NC(C)(C)C(C)C)C4)nn3)cc2o1; 0.1 to 1 µM

Data request: Supply recorded AC50 for Cc1nc2cc(O)c(-c3ccc(N4CC[C@@H](NC(C)(C)C(C)C)C4)nn3)cc2o1 here.
Data returned: 0.1 to 1 µM

Data request: Please give measured AC50 of the following entry: Cc1nc2ccc(-c3ccc(N4CCC(NC(C)(C)C)C4)nn3)nc2o1 (stereo not shown)
Data returned: 0.1 to 1 µM

###

// values below are reported AC50
Tested on: MYB mRNA
Test: RT-qPCR splicing assay, MYB canonical (CJ) and alternative (AJ) junction mRNA
Type: cell-based, human
Conditions: Homo sapiens, 24 h, Table 3B; A673 or K562 cells, 24 h treatment; read-out: MYB AJ (AC50, increase in AJ mRNA)

// known answers, use as guide
COc1cc2cc(-c3ccc(N4CCC(NC(C)(C)C)C4)nn3)c(O)cc2nn1 (stereo not shown); 1 to 10 µM
Cn1cc2cc(-c3cnc(N4CC[C@@H](NC(C)(C)C)C4)nn3)c(O)cc2n1; > 10 µM

Data request: Return AC50 for the following compound: CC(C)(C)NC1CCN(c2ccc(-c3cc4oc(CC#N)nc4cc3O)nn2)C1 (stereo not shown)
Data returned: 0.1 to 1 µM

Data request: Look up AC50 of Cc1ccc2cc(-c3ccc(N4CCC(NC(C)(C)C)C4)nn3)c(O)cc2n1 (stereo not shown) and report it.
Data returned: > 10 µM

###

System: Target C mRNA
Assay: RT-qPCR splicing assay panel, Target C canonical junction (CJ) mRNA
Type: cell-based, human
Details: Homo sapiens, canonical junction (CJ) mRNA, RT-qPCR panel, Table 4A; read-out: Target C, decrease in CJ mRNA levels, IC50
readout kind: IC50

Data request: Complete the entry with IC50 for CCc1cc(-c2ccc(-c3ccc(N4CC[C@@H](NC5CCC5)C4)nn3)c(O)c2)cnn1 [Compound 277]
Data returned: > 10 µM

Data request: Supply measured IC50 of COc1cc(-c2ccc(-c3ccc(N4CCC(NC5CCC5)C4)nn3)c(O)c2)ccn1 (centres unmarked) [Compound 305] in your reply.
Data returned: 1 to 10 µM

Data request: Please report IC50 for the following compound: COc1nc(-c2ccc(N3CC[C@@H](NC(C)(C)C)C3)nn2)ccc1-c1cnc(C)s1 [Compound 405]
Data returned: < 0.1 µM

Data request: Specify measured IC50 for COCCc1cc(-c2ccc(-c3ccc(N4CCC(NC5CCC5)C4)nn3)c(O)c2)cnn1 (centres unmarked) [Compound 430] .
Data returned: > 10 µM

Data request: # return recorded IC50 for input COc1nc(-c2cnc(N3CCC(NC4CCC4)C3)nn2)ccc1-c1cnc(C)s1 (centres unmarked) [Compound 421]
Data returned: 0.1 to 1 µM

Data request: Please report the measured IC50 for COc1cc(-c2ccc(-c3ccc(N4CCC(NC(C)(C)C)C4=O)nn3)c(O)c2)cnn1 (centres unmarked) [Compound 219]
Data returned: 1 to 10 µM

Data request: Annotate the compound Cc1nnc(-c2ccc(-c3ccc(N4CC[C@H](NCC5CC5)C4)nn3)c(O)c2)s1 [Compound 414] with its measured IC50.
Data returned: 0.1 to 1 µM

Data request: Give the value of IC50 reported for the following: Cc1ncc(-c2cc(O)c(-c3ccc(N4CCC(NC5CCOCC5)C4)nn3)cc2F)s1 (centres unmarked) [Compound 354]
Data returned: < 0.1 µM

###

Tested on: SMN2 mRNA
Assay: RT-qPCR splicing assay panel, SMN2 canonical junction (CJ) mRNA
Format: cell-based, human
Conditions: Homo sapiens, canonical junction (CJ) mRNA, RT-qPCR panel, Table 4A; read-out: SMN2, decrease in CJ mRNA levels, IC50
pIC50: −log10 of the molar value.
Each entry below carries its reported pIC50.

Worked set:
O=c1cc(-c2cc(O)c(-c3ccc(N4CC[C@@H](NC5CCC5)C4)nn3)cc2F)cc[nH]1 [Compound 220]; 6.00 to 7.00
Cc1cc(-c2ccc(-c3ccc(N4CCC(NC5CCC5)C4)nn3)c(O)c2)cc2cn(C)nc12 (stereo not shown) [Compound 318]; 6.00 to 7.00
Cc1nc(C)c(-c2cc(O)c(-c3ccc(N4CC[C@H](NC5CCC5)C4)nn3)cc2F)s1 [Compound 386]; 6.00 to 7.00
COc1nc(-c2cnc(N3CCC(NC4CCC4)C3)nn2)ccc1-c1cnc(C)s1 (stereo not shown) [Compound 421]; 6.00 to 7.00
COc1cc(-c2ccc(-c3ccc(N4C[C@@H](F)[C@@H](NC(C)(C)C)C4)nn3)c(O)c2)cnn1 [Compound 218]; > 7.00
Oc1cc(-c2cc(OC(F)(F)F)ncn2)ccc1-c1ccc(N2CCC(NCC3CC3)C2)nn1 (stereo not shown) [Compound 455]; < 5.00
COc1cc(-c2cc(O)c(-c3ccc(N4CCC(C)(NC(C)C)C4)nn3)cc2F)cnn1 (stereo not shown) [Compound 284]; > 7.00
Cc1cnc(-c2cc(O)c(-c3ccc(N4CCC(NC5CCC5)C4)nn3)cc2F)s1 (stereo not shown) [Compound 367]; 5.00 to 6.00

Data request: Look up pIC50 of COc1cc(-c2ccc(-c3ccc(N4CC[C@@H](N(CCF)C5CCC5)C4)nn3)c(O)c2)cnn1 [Compound 313] and report it.
Data returned: 6.00 to 7.00

Data request: Read off the recorded pIC50 for Oc1cc(-c2cn[nH]c2)ccc1-c1ccc(N2CC[C@H](NC3CC3)C2)nn1 [Compound 104]
Data returned: > 7.00

Data request: For the compound Cc1nnc(-c2cc(O)c(-c3ccc(N4CC[C@@H](NC5CCC5)C4)nn3)cc2F)s1 [Compound 359] , give its measured pIC50 value.
Data returned: 6.00 to 7.00

Data request: Item Cc1ncc(-c2cc(O)c(-c3ccc(N4CCC(CNC5CCC5)C4)nn3)cc2F)s1 (stereo not shown) [Compound 342] : provide pIC50
Data returned: > 7.00

Data request: # return recorded pIC50 for entry CN([C@@H]1CCN(c2ccc(-c3ccc(-c4cn[nH]c4)cc3O)nn2)C1)C(C)(C)C [Compound 406]
Data returned: 6.00 to 7.00

Data request: Please indicate pIC50 recorded for COc1cc(-c2ccc(-c3ccc(N4CCC(CNC(C)(C)C)C4)nn3)c(O)c2)cnn1 (stereo not shown) [Compound 351]
Data returned: 6.00 to 7.00

Data request: Find the measured pIC50 of Oc1cc(-n2cnnc2)c(F)cc1-c1ccc(N2CCC(NC3CCC3)C2)nn1 (stereo not shown) [Compound 315] and report it.
Data returned: 5.00 to 6.00

Data request: Supply recorded pIC50 for COc1cc(-c2ccc(-c3ccc(N4CCC(N[C@H]5C[C@H](OC)C5)C4)nn3)c(O)c2)cnn1 (stereo partly shown) [Compound 448] here.
Data returned: > 7.00

The values you see were collected from patent US20250333397A1.
